Data provenance: patent US20250101041A1

- target: human mAChR M4 (Homo sapiens)
- Construct: expressed in transfected cells; host or cells: CHO-K1 (American Type Culture Collection), stably expressing hM4 and Gqi5
- assayProtocol: mAChR M4 cell-based functional assay: calcium mobilization (Fluo-4, FDSS), potentiation of EC20 acetylcholine response in hM4-Gqi5 CHO-K1 cells
- conditionInfo: CHO-K1, % ACh maximum at 30 μM; human M4
Would you mind classing the entries by Emax at 30 µM? Ranges: A: < 80%; B: ≥ 80% and < 90%; C: ≥ 90%

>>> categorylabel("Cc1cc2ncc(Cl)c(=O)n2nc1N1CCc2ncc(C(F)(F)F)cc2C1")
"C"
>>> categorylabel("Cc1cc(=O)n2nc(N3CCc4ncc(-c5ccc(C(F)(F)F)nc5)cc4C3)c(C)cc2n1")
"A"
>>> categorylabel("CCc1ccccc1-c1cnc2c(c1)CN(c1nn3c(=O)cc(C)nc3c(C)c1C)CC2")
"B"
>>> categorylabel("Cc1cc2nc(C(=O)NC3(C#N)CC3)cc(=O)n2nc1N1CCc2ncc(C(F)(F)F)cc2C1")
"C"
>>> categorylabel("Cc1cc2nc(C)c(F)c(=O)n2nc1N1CCc2ncc(Nc3ccncc3F)cc2C1")
"C"
>>> categorylabel("Cc1cc2nc(C(=O)N3CC(C)(F)C3)cc(=O)n2nc1N1CCc2ncc(C(F)(F)F)cc2C1")
"C"
>>> categorylabel("Cc1cc2nccc(=O)n2nc1N1CCc2ncc(N3CCOC(Cc4ccccc4)C3)cc2C1 (centres unmarked)")
"A"
>>> categorylabel("Cc1c(N2CCc3ncc(-c4cncnc4)cc3C2)nn2c(=O)cc(C(F)F)nc2c1C")
"B"
>>> categorylabel("CCc1cc(=O)n2nc(N3CCc4ncc(C(F)(F)F)cc4C3)c(C)c(C)c2n1")
"C"
>>> categorylabel("Cc1cc(=O)n2nc(N3CCc4ncc(-c5cnn(C6COC6)c5)cc4C3)c(C)c(C)c2n1")
"B"
>>> categorylabel("Cc1cc2nccc(=O)n2nc1N1CCc2ncc(-c3cccc4ncccc34)cc2C1")
"B"
>>> categorylabel("CCc1ccccc1-c1cnc2c(c1)CN(c1nn3c(=O)ccnc3c(C)c1C)CC2")
"A"
>>> categorylabel("Cc1cc(=O)n2nc(N3CCc4ncc(-c5cccs5)cc4C3)c(C)cc2n1")
"B"
>>> categorylabel("Cc1cc(=O)n2nc(N3CCc4ncc(-c5cnn(C)c5C)cc4C3)c(C)c(C)c2n1")
"B"
>>> categorylabel("Cc1cc2nccn2cc1-c1cnc2c(c1)CN(c1nn3c(=O)ccnc3c(C)c1C)CC2")
"A"
>>> categorylabel("Cc1c(N2CCc3ncc(-c4cnccn4)cc3C2)nn2c(=O)cc(C(F)F)nc2c1C")
"C"
>>> categorylabel("Cc1cc(=O)n2nc(N3CCc4ncc(-c5cccc(F)c5)cc4C3)c(C)cc2n1")
"A"
>>> categorylabel("Cc1cc(=O)n2nc(N3CCc4ncc(-c5ccncc5C)cc4C3)c(C)c(C)c2n1")
"B"
>>> categorylabel("Cc1nc(-c2cnc3c(c2)CN(c2nn4c(=O)ccnc4cc2C)CC3)cs1")
"A"
>>> categorylabel("COc1ccnc(Nc2cnc3c(c2)CN(c2nn4c(=O)ccnc4cc2C)CC3)n1")
"A"
>>> categorylabel("CCN(CC)c1cnc2c(c1)CN(c1nn3c(=O)ccnc3cc1C)CC2")
"A"

----------
- target: human mAChR M4 (Homo sapiens, UniProt P08173)
- Construct: expressed in transfected cells; host or cells: CHO-K1 (American Type Culture Collection), stably expressing hM4 and Gqi5
- Sequence (P08173 1-479): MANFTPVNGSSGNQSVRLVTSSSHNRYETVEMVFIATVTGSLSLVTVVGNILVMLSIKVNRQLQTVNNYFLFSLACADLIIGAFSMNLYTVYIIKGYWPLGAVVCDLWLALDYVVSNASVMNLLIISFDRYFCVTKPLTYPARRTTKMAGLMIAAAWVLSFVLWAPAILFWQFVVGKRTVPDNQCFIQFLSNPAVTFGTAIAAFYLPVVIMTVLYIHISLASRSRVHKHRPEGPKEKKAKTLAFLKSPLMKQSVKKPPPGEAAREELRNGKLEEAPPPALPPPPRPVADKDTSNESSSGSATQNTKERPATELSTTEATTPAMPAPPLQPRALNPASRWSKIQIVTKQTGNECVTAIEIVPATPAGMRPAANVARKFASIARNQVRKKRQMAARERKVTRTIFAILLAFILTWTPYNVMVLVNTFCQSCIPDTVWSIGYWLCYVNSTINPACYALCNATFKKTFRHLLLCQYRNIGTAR
- assayProtocol: mAChR M4 cell-based functional assay: calcium mobilization (Fluo-4, FDSS), potentiation of EC20 acetylcholine response in hM4-Gqi5 CHO-K1 cells
- conditionInfo: CHO-K1, % ACh maximum at 30 μM; human M4
measuredParameter: Emax at 30 µM (%)

>>> measurement("Cc1cc2nc(C(=O)N3CC(C)C3)cc(=O)n2nc1N1CCc2ncc(C(F)(F)F)cc2C1")
102
>>> measurement("Cc1ccc(-c2cnc3c(c2)CN(c2nn4c(=O)ccnc4c(C)c2C)CC3)cn1")
96
>>> measurement("COCc1cc(=O)n2nc(N3CCc4ncc(-c5ccco5)cc4C3)c(C)cc2n1")
92
>>> measurement("Cc1ccc(-c2cnc3c(c2)CN(c2nn4c(=O)cc(C5CC5)nc4cc2C)CC3)cn1")
109
>>> measurement("Cc1cc2n(n1)CCCN2c1cnc2c(c1)CN(c1nn3c(=O)ccnc3c(C)c1C)CC2")
96
>>> measurement("Cc1cc2nc(C(F)(F)F)cc(=O)n2nc1N1CCc2ncc(Nc3ccncc3F)cc2C1")
92
>>> measurement("COc1cc(C)c(-c2cnc3c(c2)CN(c2nn4c(=O)cc(C(F)F)nc4c(C)c2C)CC3)cn1")
91
>>> measurement("Cc1cc2ncc(Cl)c(=O)n2nc1N1CCc2ncc(-c3ccnn3C)cc2C1")
86
